These measurements were taken from the RNAGym collection of RNA variant scans (doi:10.1002/anie.201605470).

B1: Osa-1-4 twister ribozyme (parent)
chain: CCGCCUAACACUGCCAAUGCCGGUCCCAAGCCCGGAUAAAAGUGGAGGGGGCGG

# Variants of: B1
# measurementProtocol: self-cleavage, relative activity (ratio to wild type); higher = more cleavage; co-transcriptional
reportedProperty: self-cleavage
// print number alone

In the examples that follow, each entry is paired with its recorded self-cleavage.
>>> observedmeasurement("A8C C32U")
0.02
>>> observedmeasurement("C9G U12G")
0.11
>>> observedmeasurement("A8C G48C")
0.02

Q. What measured self-cleavage goes with U37C U43C ?
A. 0.38

Q. Please answer likewise for C31U U37G
A. 1

Q. Please answer likewise for C26A C32U
A. 0.01

Q. Please answer likewise for C25G G30U
A. 0.02

Q. Please answer likewise for C21G G45U
A. 0.02

Q. Please answer likewise for A36U C21A
A. 0.91
